# Test system: NCI-H460 lung
# assay protocol: NCI tumour cell line growth inhibition, 48 h
Where a SMILES comes first, the peptide text is derived from it.
# if value of TGI reaches 40 µM, tag MET; if it stays below, tag NOT MET

# input Please indicate if the recorded TGI for CCCCCNC(=O)c1c(O)[nH]c(=S)[nH]c1=O meets or exceeds 40 µM.
# output MET

# input Please answer likewise for N#Cc1c(N)nc(NCc2ccccc2)c(C#N)c1-c1ccccc1Cl
# output NOT MET

---
# input Please indicate if the recorded TGI for N#C/C(=C1C=C/C(=N\O)C(Cl)=C\1)c1ccccc1 meets or exceeds 40 µM.
# output NOT MET

# input Please answer likewise for NC1=CC(=O)c2nc3ccccc3c3ccnc1c23
# output NOT MET

# input Please answer likewise for COc1cc2c(cc1OC)C1Cc3cc(OC)c(OC)cc3C(C2)O1
# output MET

# input Please answer likewise for CNC(=O)CNC(=O)C(NC(=O)CNC(=O)C1CCCN1C(=O)C(C)NC(=O)C(NC(C)=O)C(C)C)C(C)C (stereo unspecified) (Ac-VAPGVG-NHMe; configuration not given here)
# output MET

# input Please answer likewise for Cc1c(NC(=O)c2cc([N+](=O)[O-])cc([N+](=O)[O-])c2)c(=O)n(-c2ccccc2)n1C
# output MET

# input Please answer likewise for O=C1NC(c2c(Cl)cccc2Cl)Nc2ccccc21 (stereo unspecified)
# output MET

# input Please answer likewise for CCOC(=O)c1c[nH]cc1-c1cn(S(=O)(=O)c2ccccc2)cc1C
# output MET

# input Please answer likewise for N#CCCOCN(CO)c1nc(N(CO)COCCC#N)nc(N(CO)COCCC#N)n1
# output MET

# input Please answer likewise for CC(=O)OC1CC2C(C)(C)C(=O)C=C[C@]2(C)C2CCC3(C)C(c4ccoc4)[C@@H](O)[C@H]4O[C@]43[C@]12C (stereo partly specified)
# output NOT MET

---

# System: DU-145 prostate
# assay protocol: NCI tumour cell line growth inhibition, 48 h
Items are presented alongside their recorded TGI.

// worked examples, TGI included
# input Return TGI measured with DU-145 prostate given this compound: COc1ccc2cc(Cn3cc[n+](Cc4ccc5ccccc5c4)c3)ccc2c1
# output 16.9 µM

# input Please answer likewise for O=C(O)CP(=O)(O)O
# output > 100 µM

---
# input Return TGI measured with DU-145 prostate given this compound: CNC(=O)NC(CCCCNC(=O)OCc1ccccc1)C(=O)OCc1ccccc1 (stereo not drawn)
# output > 100 µM

---

# System: IGROV1 ovarian
# assay protocol: NCI tumour cell line growth inhibition, 48 h; in the data active = GI50 below about 0.43 µM; inactive = the rest
Log the outcome using a class from 1 = active, -1 = inactive

# count of solved cases: 5
# input In this assay, the call recorded for C=CC[C@@H]1/C=C(\C)C[C@H](C)C[C@H](OC)[C@H]2O[C@@](O)(C(=O)C(=O)N3CCCC[C@H]3C(=O)O[C@H](/C(C)=C/C3CC[C@@H](O)[C@H](OC)C3)[C@H](C)[C@@H](O)CC1=O)[C@H](C)C[C@@H]2OC (some centres undefined) was what?
# output -1

# input Please answer likewise for N=c1n(Cc2ccccc2)c(N)cc(=O)n1Cc1ccccc1
# output -1

# input Please answer likewise for CCC[CH2][Sn]1([CH2]CCC)[O]CC(CN2CCOCC2)[O]1 (centres undefined)
# output -1

# input Please answer likewise for O=C1CCC(N2Cc3c(C#CCCCNC(=O)c4cc5c(o4)C(=O)c4ccccc4C5=O)cccc3C2=O)C(=O)N1 (centres undefined)
# output -1

# input Please answer likewise for CC1(C)N=C(N)N=C(N)N1c1cccc(CCCCOc2ccccc2)c1
# output 1

---
# input In this assay, the call recorded for Oc1ccc(-c2cn3cc(Cl)sc3n2)cc1 was what?
# output -1

# input Please answer likewise for COc1ccc(-c2nc(N3CCOCC3)c3sc(CN(C)c4ncc(C(=O)NO)cn4)cc3n2)cn1
# output 1

# input Please answer likewise for COc1cc(-n2cnc(-c3ccc(Cl)cc3)c2)cc(OC)c1OC
# output -1

# input Please answer likewise for CS(=O)(=O)c1ccc(Oc2cc(F)cc(C#N)c2)c2c1[C@H](O)C(F)(F)C2
# output -1

# input Please answer likewise for NC1=CC(=O)c2nc3ccccc3c3ccnc1c23
# output -1

# input Please answer likewise for C/C(=C\CCc1ccsc1)CC/C=C(\C)CCCN1CCC(CO)CC1
# output -1

# input Please answer likewise for CCN(CC)CCCCNc1ncc2cc(-c3cc(OC)cc(OC)c3)c(NC(=O)NC(C)(C)C)nc2n1
# output -1

# input Please answer likewise for COc1ccc(OC)c(/C=C2\COc3ccc(O)c(O)c3C2=O)c1
# output -1

# input Please answer likewise for CSC1=Nc2c(c(C)c(C)n2COC(CO)CO)C2=NC(=O)CC(C)N12 (centres undefined)
# output -1

---

# System: SNB-75 CNS
# assay protocol: NCI tumour cell line growth inhibition, 48 h
Where a SMILES comes first, the peptide text is derived from it. [ ]: non-standard residue; d: D form. The star is where a group is joined. NMeF = CN[C@@H](Cc1ccccc1)C(=O)O; NMeV = CN[C@H](C(=O)O)C(C)C; Boc = CC(C)(C)OC(=O)*; OBn = c1ccc(CO*)cc1
Items are presented alongside their recorded GI50.

// worked examples, GI50 included
# input Any idea what its GI50 is? The molecule is CC(C)[C@@H](C(=O)N1CCC[C@H]1C(=O)OCc1ccccc1)N(C)C(=O)[C@H](C(C)C)N(C)C(=O)[C@H](Cc1ccccc1)N(C)C(=O)[C@H](NC(=O)OC(C)(C)C)C(C)C (Boc-[dV][NMeF][NMeV][NMeV]P-OBn)
# output > 100000 nM

# input Please answer likewise for O=C(Cc1ccccc1)NC(c1ccc(Cl)cc1)c1c(O)ccc2ccccc12 (centres undefined)
# output 2220 nM

# input Please answer likewise for CS(=O)(=O)c1ccc(Oc2cc(F)cc(C#N)c2)c2c1[C@H](O)C(F)(F)C2
# output > 100000 nM

---
# input Any idea what its GI50 is? The molecule is Cc1[nH]nc2ccc3nc(-c4ccc5[nH]ncc5c4)c4c(c3c12)CCCC4
# output 1520 nM

---

# Tested on: MDA-MB-435
Log the outcome using a class from Yes for active, No for inactive

# input In this assay, the call recorded for CC1(C)N=C(N)N=C(N)N1c1cccc(CCCCOc2ccccc2)c1 was what?
# output Yes

# input Please answer likewise for COc1cc(C2CC(c3ccccc3)=NN2C(C)=O)cc(OC)c1OC (centres undefined)
# output No

# input Please answer likewise for COc1cc(/C=C2\C(=O)N(c3ccccc3)c3ccccc32)cc(OC)c1OC
# output No

# input Please answer likewise for O=C(Nc1ccc(OCc2nnc(-c3ccccc3)o2)c(F)c1)Nc1ccc(Cl)c(C(F)(F)F)c1
# output No

# input Please answer likewise for O=C1CCC(N2Cc3c(C#CCCCNC(=O)c4cc5c(o4)C(=O)c4ccccc4C5=O)cccc3C2=O)C(=O)N1 (centres undefined)
# output No

# input Please answer likewise for Clc1ccc(C2=NN[C@H](c3cn(-c4ccccc4)nc3-c3ccccc3)C2)cc1
# output No

---
# input In this assay, the call recorded for C/C(=C\CCc1ccsc1)CC/C=C(\C)CCCN1CCC(CO)CC1 was what?
# output No

# input Please answer likewise for COC1=CC(c2ccc[nH]2)=N/C1=C\c1[nH]c(C)c(C(C)=O)c1C
# output Yes

# input Please answer likewise for S=C(c1ccc2c(c1)OCO2)N1CCN(c2cccc(Cl)c2)CC1
# output Yes

---

# System: CCRF-CEM leukemia
# assay protocol: NCI tumour cell line growth inhibition, 48 h
Items are presented alongside their recorded TGI.

// worked examples, TGI included
# input Any idea what its TGI is? The compound is COc1cc(/C=C2\C(=O)N(c3ccccc3)c3ccccc32)cc(OC)c1OC
# output 7.78 µM

# input Please answer likewise for COC(=O)CCc1ccc2c(c1)CC1(Cc3ccccc3C1)C2
# output > 100 µM

# input Please answer likewise for O=S(=O)(CCNCc1ccc(-c2ccc3ncnc(Nc4ccc(OCc5cccc(F)c5)c(Cl)c4)c3c2)o1)c1ccccc1
# output > 25 µM

# input Please answer likewise for C=C(C)[C@@H]1CCC2=C[C@H](OC2=O)[C@@]2(C)C[C@@H]2C(=O)/C=C(/C)C(=O)[C@H]1OC(C)=O
# output > 25.2 µM

# input Please answer likewise for O=C(O)c1ccccc1-c1ccccc1C(=O)Nc1ccc2c(c1)[nH]c(=O)c1ccccc12
# output > 100 µM

---
# input Any idea what its TGI is? The compound is CC1=NN(C(=O)CC(=O)Nc2cccc(C)c2)C(=O)C1N=Nc1ccc(S(=O)(=O)c2ccc(N=NC3C(=O)N(C(=O)CC(=O)Nc4cccc(C)c4)N=C3C)cc2)cc1 (centres undefined)
# output > 100 µM

# input Please answer likewise for Clc1ccc(C2=NN[C@H](c3cn(-c4ccccc4)nc3-c3ccccc3)C2)cc1
# output 45.3 µM

# input Please answer likewise for O=[N+]([O-])c1ccc(N/N=C(\c2ccccc2)c2ccccn2)nc1
# output > 91.5 µM

# input Please answer likewise for O=C(Nc1ccc(OCc2nnc(-c3ccccc3)o2)c(F)c1)Nc1ccc(Cl)c(C(F)(F)F)c1
# output 10.6 µM
